# ASSAY_TEXT: chemical genetic growth profiling, strain panel (AID 1159580);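 note: tested at 20 µM; growth read once vehicle control cultures reached saturation at 30 °C; lower values mean less growth of the strain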
# CONDITION_CONTEXT: S. cerevisiae deletion strains, growth OD, locus YCL016C, strain dcc1, active compounds read low
Hit rate of the full screen: of about 5,500 compounds, about 2,000 (36%) were called active. Roughly 18% stayed inconclusive and do not appear here. The list shows a part of the results.
Strictly below 1 in normalized growth: fulfilled. Otherwise: not fulfilled.

COMPOUND	ASSIGNED_LABEL
CC[C@]1(O)CC2CN(CCc3c([nH]c4ccccc34)[C@@](C(=O)OC)(c3cc4c(cc3OC)N(C=O)[C@H]3[C@@](O)(C(=O)OC)[C@H](OC(C)=O)[C@]5(CC)C=CCN6CC[C@]43[C@@H]65)C2)C1 (some centres not stated)	not fulfilled
CC[C@@H](C(=O)[C@@H](C)[C@@H](O)[C@H](C)[C@@H]1O[C@@H]([C@@H](CC)C(=O)O)CC[C@@H]1C)[C@H]1OC2(C=C[C@@H](O)[C@]3(CC[C@@](C)([C@H]4CC[C@](O)(CC)[C@H](C)O4)O3)O2)[C@H](C)C[C@@H]1C (some centres not stated)	fulfilled
C=CCc1cc(OC)c2c(c1OC)OCO2	fulfilled
